# credit: ChEMBL document CHEMBL1134196

assay: Half life value of the compound; assay type: ADME; details: rat
Measure: half-life
Answers without a unit are incomplete; give the number and then its unit.

Observe how each entry below is paired with its result.
INSERT INTO measurements (compound_string, result) VALUES
  ('CCCC[C@H]1CN(c2cccc(C)c2C)CC(=O)N1Cc1cncn1Cc1ccc(C#N)cc1', '2.3 h'),
  ('N#Cc1ccc(Cn2cncc2CN2CCN(c3cccc(Cl)c3)C(=O)C2=O)cc1', '2.2 h'),
  ('CCCC[C@H]1CN(c2cccc(C)c2C)C(=O)CN1Cc1cncn1Cc1ccc(C#N)cc1', '0.6 h');

Proceeding to the next compound to report its half-life.
Exam item: Provide measured half-life value, entry: Cc1cccc(N2CCN(Cc3cncn3Cc3ccc(C#N)cc3)C(=O)C2=O)c1C
Marked response: 1 h
